# SYSTEM_UNDER_TEST: full length AKT E17K (Homo sapiens, UniProt P31749, E17K)
# Construct: host or cells: HEK-293 (ATCC CRL-1573)
# Sequence (P31749 whole entry E17K): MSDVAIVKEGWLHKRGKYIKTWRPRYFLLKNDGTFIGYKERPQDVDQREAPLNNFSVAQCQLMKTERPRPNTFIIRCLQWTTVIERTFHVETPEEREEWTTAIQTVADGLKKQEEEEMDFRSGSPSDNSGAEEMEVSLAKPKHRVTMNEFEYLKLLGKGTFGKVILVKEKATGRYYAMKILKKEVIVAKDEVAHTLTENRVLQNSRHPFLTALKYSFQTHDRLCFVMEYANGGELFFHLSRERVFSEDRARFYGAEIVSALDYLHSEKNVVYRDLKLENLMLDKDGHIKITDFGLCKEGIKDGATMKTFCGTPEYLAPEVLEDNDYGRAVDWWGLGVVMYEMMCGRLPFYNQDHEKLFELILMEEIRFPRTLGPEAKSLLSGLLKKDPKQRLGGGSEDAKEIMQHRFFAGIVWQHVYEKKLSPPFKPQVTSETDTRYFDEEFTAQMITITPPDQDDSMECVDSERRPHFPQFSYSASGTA
# PROTOCOL_NOTES: NanoBRET Target Engagement (TE) Assay
# Assay type: cell-based
# TEST_CONDITIONS: competitive displacement of tracer in cells, read-out: AKT1 E17K IC50
REPORTED_METRIC: IC50

These recorded examples may help you get a feel for the data.
Find the recorded IC50 belonging to N#Cc1nccc(N2CC3(CCN(Cc4ccc(-n5c(-c6cccnc6N)nc6ccc(-c7ccccc7)nc65)cc4)CC3)C2)n1 and report it. < 0.015 µM

I'd like to know its IC50. The compound in question is N#Cc1cc(-c2ccc3nc(-c4cccnc4N)n(-c4ccc(CN5CCC(Nc6ccnc(C#N)n6)CC5)cc4)c3n2)ccn1 < 0.015 µM

Recorded IC50 for Cc1ccnc(-c2ccc3nc(-c4cccnc4N)n(-c4ccc(CN5CCC(Nc6ccnc(C#N)n6)CC5)cc4)c3n2)c1 , please? < 0.015 µM

Record request: IC50 value, item N#Cc1nccc(NC2CCN(Cc3ccc(-n4c(-c5cccnc5N)nc5ccc(-c6ccc(F)c(O)c6)nc54)cc3)CC2)n1 < 0.015 µM

Value lookup for IC50; key = CC(C)n1ncc(-c2ccc3nc(-c4nccnc4N)n(-c4ccc(CN5CCC(Nc6ccnc(C#N)n6)CC5)cc4)c3n2)n1 < 0.015 µM

Which measured IC50 value corresponds to Cc1cn(-c2ccc3nc(-c4cccnc4N)n(-c4ccc(CN5CCC(Nc6ccnc(C#N)n6)CC5)cc4)c3n2)nn1 ? < 0.015 µM

Others:
Request the reported IC50 associated with CCc1ccc2nc(-c3cccnc3N)n(-c3ccc(CN4CCC(Nc5ccnc(C#N)n5)CC4)cc3)c2n1 < 0.015 µM

Value lookup for IC50; key = N#Cc1cccc(-c2ccc3nc(-c4cccnc4N)n(-c4ccc(CN5CCN(c6ccnc(C#N)n6)CC5)cc4)c3n2)c1 < 0.015 µM

Source listed as patent US12209087B2.
